The measurements presented in this section are drawn from the METLIN SMRT retention time set (Domingo-Almenara et al. 2019).

Test Name: gradient 5% acetonitrile 3 min, to 50% in 2 min, to 85% in 15 min, held 3 min, 100 µL/min
Cond: column: Zorbax Extend-C18 2.1 x 50 mm; eluents: water / acetonitrile, 0.1% formic acid
Readout Label: RP-LC retention time (s)

Report RP-LC retention time for `COc1ccc(C(=O)n2c(SC)nc3ccccc32)cc1OC` please. 827

P. CN(C)S(=O)(=O)c1ccc2nc(NC(=O)c3nc4ccccc4s3)sc2c1
Q. O=C(c1ccsc1)N1CCC(Nc2ncnc3c2CCC3)CC1
For this pair, P and Q , which shows a numerically higher RP-LC retention time? Give the label of your selection. P

a. COc1ccc(C)cc1NC(=O)Cn1nc(N2CCCC(C)C2)c2ccccc2c1=O (stereo not given)
b. CCCc1noc(-c2ccnc(-n3cnc(C(=O)N4CCCC4)c3)c2)n1
For this pair, a and b , which shows a numerically higher RP-LC retention time? Give the label of your selection. a

###

Test Name: gradient 5% acetonitrile 3 min, to 50% in 2 min, to 85% in 15 min, held 3 min, 100 µL/min
Cond: column: Zorbax Extend-C18 2.1 x 50 mm; eluents: water / acetonitrile, 0.1% formic acid
Readout Label: RP-LC retention time (s)

Report RP-LC retention time for `COc1ccc(CCNc2ncnc(N)c2[N+](=O)[O-])cc1OC` please. 660

Same question for `Cc1nc(C(C)C)nc2c1CCC(=O)N2Cc1cccnc1` please. 519

Same question for `COc1cccc(CC(=O)N2CCC3(CC2)NC(=O)c2ccc(F)cc2N3C)c1` please. 756

I. COc1ccc(Cl)cc1NC(=O)C1CCCN(S(=O)(=O)c2cc(-c3noc(C)n3)cs2)C1 (centres undefined)
II. CC(C)CN1C(=O)c2cccn2CC1C(=O)NCCCN1CCCC1=O (centres undefined)
Could you tell me which of these two has the smaller RP-LC retention time figure? First: I Second: II Give the label of your selection. II

###

Test Name: gradient 5% acetonitrile 3 min, to 50% in 2 min, to 85% in 15 min, held 3 min, 100 µL/min
Cond: column: Zorbax Extend-C18 2.1 x 50 mm; eluents: water / acetonitrile, 0.1% formic acid
Readout Label: RP-LC retention time (s)

Please review the following examples before continuing.
Report RP-LC retention time for COc1ccc(NC(=O)C2CCCN2S(=O)(=O)c2ccc3c(c2)N(C(C)=O)CCO3)cc1 (stereo not given) please. 762

Same question for CN1C(=O)C2CCCCN2c2ccc(C(=O)N3CCN(c4ccc(Cl)cc4)CC3)cc21 (stereo not given) please. 1020

Same question for `O=C(Cc1csc2nc(-c3ccccc3)cn12)Nc1ccc(F)c(Cl)c1` please. 902

a. COc1ccc(NC(=O)c2nnc(COCC(=O)NCCc3c[nH]c4ccc(C)cc34)s2)cc1
b. O=C([C@@H]1C[C@H](F)CN1C(=O)c1ccoc1)N1CCCCC1
Could you tell me which of these two has the smaller RP-LC retention time figure? First: a Second: b Give the label of your selection. b

###

Test Name: gradient 5% acetonitrile 3 min, to 50% in 2 min, to 85% in 15 min, held 3 min, 100 µL/min
Cond: column: Zorbax Extend-C18 2.1 x 50 mm; eluents: water / acetonitrile, 0.1% formic acid
Readout Label: RP-LC retention time (s)

Please review the following examples before continuing.
Report RP-LC retention time for `Cc1ccc(CNC(=O)c2ccc3c(c2)nc2n3CCN(C3CCCCC3)C2=O)cc1` please. 839

Same question for CN(CC1CCCO1)S(=O)(=O)c1ccc(C(=O)Nc2ccc3sccc3c2)cc1 (stereo not given) please. 891

Same question for Cc1cnc(C(=O)N2CCCC2c2nc(CCOCC3CC3)no2)cn1 (stereo not given) please. 733

I. O=C(COC(=O)C(c1ccccc1)c1ccccc1)Nc1ccc2c(c1)OCO2
II. CCN1CCN(C(=O)c2nc3ccccn3c2-c2ccc(Cl)cc2)CC1
Could you tell me which of these two has the smaller RP-LC retention time figure? First: I Second: II Give the label of your selection. II
(II: 591 s, I: 940 s)

P. O=C(c1ccc[nH]1)N1CCN(C(=O)c2nnn3c2COC(c2ccc(Cl)cc2)C3)CC1 (stereo not given)
Q. Cc1ccc(C2Cn3nnc(-c4nc(-c5ccccc5)no4)c3CO2)c(C)c1 (stereo not given)
Could you tell me which of these two has the smaller RP-LC retention time figure? First: P Second: Q Give the label of your selection. P
(P: 839 s, Q: 1240 s)

###

Test Name: gradient 5% acetonitrile 3 min, to 50% in 2 min, to 85% in 15 min, held 3 min, 100 µL/min
Cond: column: Zorbax Extend-C18 2.1 x 50 mm; eluents: water / acetonitrile, 0.1% formic acid
Readout Label: RP-LC retention time (s)

Please review the following examples before continuing.
Report RP-LC retention time for `Cc1cc(-n2nc(C)cc2C)n2nc(-c3ccc(Cl)cc3)c(C)c2n1` please. 1170

Same question for `COc1ccc(S(=O)(=O)N2CCc3nc[nH]c3C2)cc1` please. 586

I. Cc1cc(Cl)ccc1OCc1nc(-c2ccc3c(c2)nnn3CCC(=O)N2CCOCC2)no1
II. CCN1CCN(CCNC(=O)CN2CCCc3nc(C4CC4)ncc3C2=O)CC1
For this pair, I and II , which shows a numerically higher RP-LC retention time? Give the label of your selection. I

P. O=C(O)Cn1c(C(=O)Nc2nc(-c3ccccc3Cl)cs2)cc2ccccc21
Q. O=C(C1CCCCC1)N1CCN(c2ccc(=O)n(-c3ccccc3)n2)CC1
R. CCN1CCN(C(=O)C2CCN(CCc3cn(CC)c4ncccc34)CC2)CC1
Please put the entries in order of rising RP-LC retention time. # list labels per requested ordering R, Q, P

###

Test Name: gradient 5% acetonitrile 3 min, to 50% in 2 min, to 85% in 15 min, held 3 min, 100 µL/min
Cond: column: Zorbax Extend-C18 2.1 x 50 mm; eluents: water / acetonitrile, 0.1% formic acid
Readout Label: RP-LC retention time (s)

Please review the following examples before continuing.
Report RP-LC retention time for `CCn1cc(C(=O)Nc2ccccc2)c(S(=O)(=O)N2CCSCC2)n1` please. 834

Same question for `Cc1cccc(-c2nc3cnccn3c2NCCC(=O)NC2CCCC2)c1` please. 670

Same question for `O=C(NCCCN1CCCCC1)c1ccc2c(c1)nc1n2CCN(C2CCCCC2)C1=O` please. 621

Same question for Cc1ccccc1N(C)C(=O)C1CCCN(c2ncnc3c2nc2n3CCCCC2)C1 (centres undefined) please. 870

I. COC(=O)c1ncn2c1C(=O)N(Cc1ccc(Cl)cc1)C(C)(C(=O)NC1CCCC1)C2 (centres undefined)
II. Cc1ccc(N2CCN(c3nccn4nc(-c5ccc(Cl)cc5)cc34)CC2)cc1
For this pair, I and II , which shows a numerically higher RP-LC retention time? Give the label of your selection. II
(II: 1400 s, I: 758 s)

###

Test Name: gradient 5% acetonitrile 3 min, to 50% in 2 min, to 85% in 15 min, held 3 min, 100 µL/min
Cond: column: Zorbax Extend-C18 2.1 x 50 mm; eluents: water / acetonitrile, 0.1% formic acid
Readout Label: RP-LC retention time (s)

Please review the following examples before continuing.
Report RP-LC retention time for `O=C(C1CCN(c2nc3ccsc3c(=O)n2-c2ccccc2)CC1)N1CCN(c2ccccc2)CC1` please. 917

Same question for `COc1cc(NC(=O)C2CCN(S(=O)(=O)c3cn(C(C)C)cn3)CC2)cc(OC)c1` please. 751

Same question for `O=C(CSc1ccc(N2CCOCC2)nn1)Nc1ccccc1Cl` please. 730

A. CCOC(=O)c1noc2ncnc(Nc3ccccc3CC)c12
B. O=C(NC1CCCC1)C1CCN(c2cncnc2N2CCCCC2)CC1
Could you tell me which of these two has the smaller RP-LC retention time figure? First: A Second: B Give the label of your selection. B
(B: 641 s, A: 948 s)

###

Test Name: gradient 5% acetonitrile 3 min, to 50% in 2 min, to 85% in 15 min, held 3 min, 100 µL/min
Cond: column: Zorbax Extend-C18 2.1 x 50 mm; eluents: water / acetonitrile, 0.1% formic acid
Readout Label: RP-LC retention time (s)

Please review the following examples before continuing.
Report RP-LC retention time for `CCCn1c(C)cnc1C1CN(S(=O)(=O)c2ccc(C)c(Cl)c2)C1` please. 710

Same question for Cc1nnc(N2CCCC(C(=O)NCCc3c[nH]c4ccccc34)C2)c2nn(-c3ccccc3)c(C)c12 (centres undefined) please. 706

Same question for `O=C(Cn1ccn2nc(-c3ccc(F)cc3)c(CO)c2c1=O)Nc1cccc(Br)c1` please. 894

Same question for `COc1cc(-c2noc(-c3cn(C)c4ccc(C)cc4c3=O)n2)cc(OC)c1OC` please. 827

a. O=C(Cc1ccccc1Cl)N1CCN(c2cc(-c3ccccc3)[nH]n2)CC1
b. O=C(Nc1ccc(Cl)cc1F)N1CCCN(C2CCN(CC3CC3)C2=O)CC1 (centres undefined)
Could you tell me which of these two has the smaller RP-LC retention time figure? First: a Second: b Give the label of your selection. b
(b: 575 s, a: 828 s)
